Tested on: P388
protocol-notes: Inhibitory concentration required to reduce cell number to 50% of control cultures in P388 (murine leukemia cell line)
Assay type: functional, cell-based
experimental-parameters: Mus musculus
pIC50: −log10 of the molar value.
observation-type: pIC50

Record excerpt, results attached:
Cc1cccc2nc3cccc(C(=O)NCCNCCCNCCNC(=O)c4cccc5nc6cccc(C)c6nc45)c3nc12 | 8.13
Cc1cccc2nc3cccc(C(=O)NCCN(C)CCN(C)CCNC(=O)c4cccc5nc6cccc(C)c6nc45)c3nc12 | 7.48
Cc1cccc2nc3cccc(C(=O)NCCCNCCCCNCCCNC(=O)c4cccc5nc6cccc(C)c6nc45)c3nc12 | 6.06
Cc1cccc2nc3cccc(C(=O)NCCCCN4CCN(CCCCNC(=O)c5cccc6nc7cccc(C)c7nc56)CC4)c3nc12 | 7.02
Cc1cccc2nc3cccc(C(=O)NCCN(C)CCCN(C)CCNC(=O)c4cccc5nc6cccc(C)c6nc45)c3nc12 | 8.80

A. Cc1cccc2nc3cccc(C(=O)NCCN4CCN(CCNC(=O)c5cccc6nc7cccc(C)c7nc56)CC4)c3nc12
B. CCCN(CCNC(=O)c1cccc2nc3cccc(C)c3nc12)CCN(CCC)CCNC(=O)c1cccc2nc3cccc(C)c3nc12
Smaller pIC50 value, A vs B ? Pick one and reply with its label.
A
(A: 5.65, B: 6.60)

====

The molecules listed here are annotated with their Ratio.
protocol-notes: Ratio of IC50 values obtained from Jurkat lines, (JLa /JLc)
Type: functional, Homo sapiens
// print number alone

Reference set, count: 2
Cc1cccc2nc3cccc(C(=O)NCCCNCCNCCCNC(=O)c4cccc5nc6cccc(C)c6nc45)c3nc12 | 0.4
Cc1cccc2nc3cccc(C(=O)NCCCCNCCCCNCCCCNC(=O)c4cccc5nc6cccc(C)c6nc45)c3nc12 | 0.3

Requested field: Ratio. Item: Cc1cccc2nc3cccc(C(=O)NCCN(C)CCCN(C)CCNC(=O)c4cccc5nc6cccc(C)c6nc45)c3nc12
0.4

# Ratio lookup, item CCCN(CCNC(=O)c1cccc2nc3cccc(C)c3nc12)CCN(CCC)CCNC(=O)c1cccc2nc3cccc(C)c3nc12
0.5

Please report the recorded Ratio for Cc1cccc2cc3cccc(C(=O)NCCN(C)C)c3nc12 .
4.6

====

Test system: P388
protocol-notes: Inhibitory concentration required to reduce cell number to 50% of control cultures in P388 (murine leukemia cell line)
Type: functional, cell-based
experimental-parameters: Mus musculus
observation-type: IC50 (µM)

Some entries whose results are on file:
Cc1cccc2nc3cccc(C(=O)NCCNCCNCCNC(=O)c4cccc5nc6cccc(C)c6nc45)c3nc12 | 0.021
Cc1cccc2nc3cccc(C(=O)NCCCN4CCN(CCCNC(=O)c5cccc6nc7cccc(C)c7nc56)CC4)c3nc12 | 0.048

A. Cc1ccc(C)c2nc3c(C(=O)NCCNCCNCCNC(=O)c4cccc5nc6c(C)ccc(C)c6nc45)cccc3nc12
B. Cc1ccc(Cl)c2nc3cccc(C(=O)NCCNCCNCCNC(=O)c4cccc5nc6c(Cl)ccc(C)c6nc45)c3nc12
Endpoint returns the identifier whose IC50 is numerically larger, either A or B . Indicate your choice by writing its label.
B

====

System: P388
protocol-notes: Inhibitory concentration required to reduce cell number to 50% of control cultures in P388 (murine leukemia cell line)
Assay type: functional, cell-based
experimental-parameters: Mus musculus
pIC50: −log10 of the molar value.
observation-type: pIC50

Worked examples follow.
CCN(CCNC(=O)c1cccc2nc3cccc(C)c3nc12)CCN(CC)CCNC(=O)c1cccc2nc3cccc(C)c3nc12 | 6.77
Cc1cccc2nc3cccc(C(=O)NCCCNCCCNCCCNC(=O)c4cccc5nc6cccc(C)c6nc45)c3nc12 | 6.37
O=C1c2cccc3cccc(c23)C(=O)N1CCNCCCNCCN1C(=O)c2cccc3cccc(c23)C1=O [ELINAFIDE] | 8.82
Cc1cccc2nc3cccc(C(=O)NCCCNCCNCCCNC(=O)c4cccc5nc6cccc(C)c6nc45)c3nc12 | 6.13

P. Cc1cccc2nc3cccc(C(=O)NCCN(C)C)c3nc12
Q. Cc1cccc2nc3cccc(C(=O)NCCCCNCCCCNCCCCNC(=O)c4cccc5nc6cccc(C)c6nc45)c3nc12
Which of these two has the smaller recorded pIC50: P or Q ? Write down the label of the entry you select.
Q

====

protocol-notes: Ratio of IC50 values obtained from Jurkat lines, (JLa /JLc)
Type: functional, Homo sapiens
observation-type: Ratio
Keep the answer to the number alone.

Example results:
Cc1cccc2nc3cccc(C(=O)NCCCCN4CCN(CCCCNC(=O)c5cccc6nc7cccc(C)c7nc56)CC4)c3nc12 | 0.5
Cc1cccc2nc3cccc(C(=O)NCCCNCCCCNCCCNC(=O)c4cccc5nc6cccc(C)c6nc45)c3nc12 | 0.2
Cc1cccc2nc3cccc(C(=O)NCCN4CCN(CCNC(=O)c5cccc6nc7cccc(C)c7nc56)CC4)c3nc12 | 0.6
Cc1cccc2nc3cccc(C(=O)NCCCNCCCNCCCNC(=O)c4cccc5nc6cccc(C)c6nc45)c3nc12 | 0.5
Cc1ccc(C)c2nc3c(C(=O)NCCNCCNCCNC(=O)c4cccc5nc6c(C)ccc(C)c6nc45)cccc3nc12 | 0.5

Quick check: Ratio of Cc1cccc2nc3cccc(C(=O)NCCNCCCNCCNC(=O)c4cccc5nc6cccc(C)c6nc45)c3nc12 ?
0.7

I'd like to know its Ratio. The compound in question is O=C1c2cccc3cccc(c23)C(=O)N1CCNCCCNCCN1C(=O)c2cccc3cccc(c23)C1=O [ELINAFIDE]
0.3

====

protocol-notes: Ratio of IC50 values obtained from Jurkat lines, (JLa /JLc)
Type: functional, Homo sapiens
observation-type: Ratio
Enter the number alone.

Field request: Ratio | item: Cc1cccc2nc3cccc(C(=O)NCCCN(C)CCCNC(=O)c4cccc5nc6cccc(C)c6nc45)c3nc12
0.6

May I ask what Ratio has been recorded for Cc1cccc2nc3cccc(C(=O)NCCN(C)C)c3nc12 ?
1.1

What value of Ratio has been recorded for this entry: Cc1cccc2nc3cccc(C(=O)NCCNCCNCCNC(=O)c4cccc5nc6cccc(C)c6nc45)c3nc12
0.5

Requested read-out: Ratio. Entry: Cc1ccc(Cl)c2nc3cccc(C(=O)NCCNCCNCCNC(=O)c4cccc5nc6c(Cl)ccc(C)c6nc45)c3nc12
0.4

What value of Ratio has been reported for the following compound? Cc1cccc2nc3cccc(C(=O)NCCN(C)CCN(C)CCNC(=O)c4cccc5nc6cccc(C)c6nc45)c3nc12
0.4

Look up Ratio for this compound: CCN(CCNC(=O)c1cccc2nc3cccc(C)c3nc12)CCN(CC)CCNC(=O)c1cccc2nc3cccc(C)c3nc12
0.6

For Cc1cccc2nc3cccc(C(=O)NCCCN4CCN(CCCNC(=O)c5cccc6nc7cccc(C)c7nc56)CC4)c3nc12 , what is its reported Ratio?
0.8

Source of measurements: ChEMBL document CHEMBL1134642
